system: E. coli ATCC 10596; test: MIC by broth microdilution, E. coli; assay type: cell-based; details: Escherichia coli, ATCC 10536 / ATCC 10596, Zinc (50 μM); read-out: E. coli ATCC 10536 MIC
Each entry below lists one item and its recorded MIC value.

- CN(C)Cc1ccc2cccc(NS(=O)(=O)c3cccc([N+](=O)[O-])c3)c2n1: > 256 µg/mL

Problem: State the recorded MIC for this entry: `CC(C)N(Cc1ccc2cccc(NS(=O)(=O)c3ccc(C(F)(F)F)cc3)c2n1)C(C)C`
Solution: > 256 µg/mL

Problem: Input `O=S(=O)(Nc1cccc2ccc(CNCc3ccccc3)nc12)c1ccc(C(F)(F)F)cc1`
Solution: > 256 µg/mL

Problem: Input `CN(C)Cc1ccc2cccc(NS(=O)(=O)c3cccc4cnccc34)c2n1`
Solution: > 256 µg/mL

Problem: Input `CN(C)CCNCc1ccc2cccc(NS(=O)(=O)c3ccc(C(F)(F)F)cc3)c2n1`
Solution: ≥ 256 µg/mL

Problem: Input `Cc1cc(CS(=O)(=O)Nc2cccc3ccc(CN(C)C)nc23)no1`
Solution: > 256 µg/mL

Problem: Input CCC(C)NCc1ccc2cccc(NS(=O)(=O)c3ccc(C(F)(F)F)cc3)c2n1 (stereo not drawn)
Solution: > 256 µg/mL

Problem: Input `O=S(=O)(Nc1cccc2ccc(CNCCO)nc12)c1ccc(C(F)(F)F)cc1`
Solution: > 256 µg/mL

Problem: Input `O=S(=O)(Nc1cccc2ccc(CNCCOCCOCCO)nc12)c1ccc(C(F)(F)F)cc1`
Solution: 256 µg/mL

###

test system: S. aureus ATCC 6538; experiment: MIC by broth microdilution, S. aureus; type: cell-based; conditions: Staphylococcus aureus, ATCC6538, No Zinc; read-out: S. aureus ATCC 6538 MIC
Each entry below lists one item and its recorded MIC value.

Example entries and their recorded answers appear below.
- N/C(=N\[N+](=O)[O-])NCc1ccc2cccc(NS(=O)(=O)c3ccc(C(F)(F)F)cc3)c2n1 [ZDR188]: > 256 µg/mL
- CO/N=C/c1ccc2cccc(NS(=O)(=O)c3ccc(C(F)(F)F)cc3)c2n1 [ZDR126]: > 256 µg/mL
- O=S(=O)(Nc1cccc2ccc(CNCc3cccs3)nc12)c1ccc(C(F)(F)F)cc1 [ZDR107]: > 256 µg/mL
- CN(C)Cc1ccc2cccc(NS(=O)(=O)c3cccs3)c2n1 [ZDR080]: > 256 µg/mL
- CN(C)Cc1ccc2cccc(NS(=O)(=O)N3CCCCC3)c2n1 [ZDR193]: > 256 µg/mL
- CN(C)Cc1ccc2cccc(NS(=O)(=O)c3cccc(C(N)=O)c3)c2n1 [ZDR331]: > 256 µg/mL

Problem: I'm curious: which MIC was measured for CN(C)Cc1ccc2cccc(NS(=O)(=O)c3ccc(N)cc3)c2n1 [ZDR160] tested on S. aureus ATCC 6538?
Solution: > 256 µg/mL

Problem: Input CN(C)Cc1ccc2cccc(NS(=O)(=O)c3cccc4nsnc34)c2n1 [ZDR196]
Solution: > 256 µg/mL

Problem: Input O=S(=O)(Nc1cccc2ccc(CNCCN3CCSCC3)nc12)c1ccc(C(F)(F)F)cc1 [ZDR113]
Solution: > 256 µg/mL

Problem: Input CN(C)Cc1ccc2cccc(NS(=O)(=O)c3ccc(C(C)(C)C)cc3)c2n1 [ZDR307]
Solution: > 256 µg/mL

Problem: Input CN(C)Cc1ccc2cccc(NS(=O)(=O)CCC(F)(F)F)c2n1 [ZDR316]
Solution: > 256 µg/mL

Problem: Input O=S(=O)(Nc1cccc2ccc(CNCc3ccncc3)nc12)c1ccc(C(F)(F)F)cc1 [ZDR110]
Solution: > 256 µg/mL

Problem: Input CC(C)N(Cc1ccc2cccc(NS(=O)(=O)c3ccc(C(F)(F)F)cc3)c2n1)C(C)C [ZDR136]
Solution: > 256 µg/mL

Problem: Input CN(C)Cc1ccc2cccc(NS(=O)(=O)c3ccccc3C(F)(F)F)c2n1 [ZDR075]
Solution: > 256 µg/mL

Problem: Input CN(C)Cc1ccc2cccc(NS(=O)(=O)c3ccc(S(C)(=O)=O)cc3)c2n1 [ZDR071]
Solution: > 256 µg/mL

Problem: Input CC(C)S(=O)(=O)Nc1cccc2ccc(CN(C)C)nc12 [ZDR318]
Solution: > 256 µg/mL
